DAR reference
# Type: physicochemical
# APPLIED_CONDITIONS: ADC with Her2 antibody, RP-HPLC-MS
# Description: A drug-antibody conjugating ratio (also known as drug-antibody ratio, abbreviated as DAR) of the antibody-drug conjugate was tested using reversed-phase high-performance liquid chromatography-mass chromatography (RP-HPLC-MS). […] Area percentages of heavy and light chain ultraviolet peaks were calculated through integration, and a weighted average DAR of the antibody-drug conjugate was calculated by combining the area percentages with the drug load distribution of each peak.
*1 amine or outer side, *2 acyl side, *3 side chain or, on linkers, in order; H or OH if unused. Where a SMILES comes first, the peptide text is derived from it. [ ]: non-standard residue; d: D form. The star is where a group is joined. Exatecan = CC[C@@]1(O)C(=O)OCc2c1cc1n(c2=O)Cc2c-1nc1cc(F)c(C)c3c1c2[C@@H](N*)CC3; Propanoyl(3-maleimido) = O=C1C=CC(=O)N1CCC(=O)*; X1 = O=C(CN1CCOCCN([*:1])CCOCC1)[*:2]; NHCH2OCH2CO = O=C(COCN[*:1])[*:2]

Q. Query: DAR; subject: CC[C@@]1(O)C(=O)OCc2c1cc1n(c2=O)Cc2c-1nc1cc(F)c(C)c3c1c2[C@@H](NC(=O)COCNC(=O)CNC(=O)[C@H](Cc1ccccc1)NC(=O)CNC(=O)CNC(=O)CN1CCOCCN(C(=O)CCN2C(=O)C=CC2=O)CCOCC1)CC3 [Example 22] ({Propanoyl(3-maleimido)}-[X1]GGFG[NHCH2OCH2CO]-Exatecan)
A. 4.14

Q. Query: DAR; subject: `C=C1C[C@@H]2CC[C@@]34C[C@H]5OC6C(O[C@H]7CC[C@H](CC(=O)C[C@@H]8[C@@H](OC)[C@@H](C[C@H](O)CNC(=O)CNC(=O)[C@H](Cc9ccccc9)NC(=O)CNC(=O)CNC(=O)CN9CCOCCN(C(=O)CCN%10C(=O)C=CC%10=O)CCOCC9)O[C@H]8C[C@H]8O[C@@H](CC[C@@H]1O2)C[C@@H](C)C8=C)O[C@@H]7[C@@H]6O3)[C@H]5O4`
A. 4.08

###

# TEST_DETAILS: Stability (placement) test of ADCs at 40° C. in dark for 14 days, DAR and polymer content
# Type: physicochemical
# APPLIED_CONDITIONS: Day 14, 40° C. in dark
*1 amine or outer side, *2 acyl side, *3 side chain or, on linkers, in order; H or OH if unused. Where a SMILES comes first, the peptide text is derived from it. [ ]: non-standard residue; d: D form. The star is where a group is joined. Exatecan = CC[C@@]1(O)C(=O)OCc2c1cc1n(c2=O)Cc2c-1nc1cc(F)c(C)c3c1c2[C@@H](N*)CC3; Propanoyl(3-maleimido) = O=C1C=CC(=O)N1CCC(=O)*; X1 = O=C(CN1CCOCCN([*:1])CCOCC1)[*:2]; NHCH2OCH2CO = O=C(COCN[*:1])[*:2]
Polymer content (%) reference
Numeric answer only, unit % assumed.

Q. Query: Polymer content (%); subject: CC[C@@]1(O)C(=O)OCc2c1cc1n(c2=O)Cc2c-1nc1cc(F)c(C)c3c1c2[C@@H](NC(=O)COCNC(=O)CNC(=O)[C@H](Cc1ccccc1)NC(=O)CNC(=O)CNC(=O)CN1CCOCCN(C(=O)CCN2C(=O)C=CC2=O)CCOCC1)CC3 [Example 22] ({Propanoyl(3-maleimido)}-[X1]GGFG[NHCH2OCH2CO]-Exatecan)
A. 0.78

Q. Query: Polymer content (%); subject: `C=C1C[C@@H]2CC[C@@]34C[C@H]5OC6C(O[C@H]7CC[C@H](CC(=O)C[C@@H]8[C@@H](OC)[C@@H](C[C@H](O)CNC(=O)OCc9ccc(NC(=O)[C@H](CCCNC(N)=O)NC(=O)[C@@H](NC(=O)CN%10CCOCCN(C(=O)CCN%11C(=O)C=CC%11=O)CCOCC%10)C(C)C)cc9)O[C@H]8C[C@H]8O[C@@H](CC[C@@H]1O2)C[C@@H](C)C8=C)O[C@@H]7[C@@H]6O3)[C@H]5O4`
A. 1.24

Q. Query: Polymer content (%); subject: `CC[C@@]1(O)C(=O)OCc2c1cc1n(c2=O)Cc2c-1nc1cc(F)c(C)c3c1c2[C@@H](NC(=O)COCNC(=O)CNC(=O)CNC(=O)CNC(=O)CN1CCOCCN(C(=O)CCN2C(=O)C=CC2=O)CCOCC1)CC3`
A. 0.65

###

# TEST_DETAILS: Polymer (high molecular component) content of antibody-drug conjugates by SE-HPLC
# Assay type: physicochemical
# APPLIED_CONDITIONS: ADC with Her2 antibody
# Method: Polymers (high molecular components) of the antibody-drug conjugates were tested using molecular exclusion high-performance liquid chromatography (SE-HPLC). A Biocore SEC chromatographic column (7.8×300 mm, […]) was used, and the mobile phase was 50 mM phosphate containing 300 mM sodium chloride (pH 6.8), with a flow rate of 0.5 mL/min. Samples of […] and 10 μl were injected. […] The polymer content of an antibody-drug conjugate was calculated using an area normalization method.
*1 amine or outer side, *2 acyl side, *3 side chain or, on linkers, in order; H or OH if unused. Where a SMILES comes first, the peptide text is derived from it. [ ]: non-standard residue; d: D form. The star is where a group is joined. Dolaproine = CO[C@@H]([C@@H]1CCCN1)[C@@H](C)C(=O)O; Hexanoyl(6-maleimido) = O=C1C=CC(=O)N1CCCCCC(=O)*; Dil = CC[C@H](C)[C@H](NC)[C@@H](CC(=O)O)OC; PABC = O=C(OCc1ccc(N[*:1])cc1)[*:2]; X3 = C[C@@H](N*)[C@@H](O)c1ccccc1; NMeV = CN[C@H](C(=O)O)C(C)C
PROPERTY_MEASURED: Polymer content (%)
Numeric answer only, unit % assumed.

C=C1C[C@@H]2CC[C@@]34C[C@H]5OC6C(O[C@H]7CC[C@H](CC(=O)C[C@@H]8[C@@H](OC)[C@@H](C[C@H](O)CNC(=O)CNC(=O)[C@H](Cc9ccccc9)NC(=O)CNC(=O)CN9CCOCCOCCN(C(=O)CCCCCN%10C(=O)C=CC%10=O)CCOCCOCC9)O[C@H]8C[C@H]8O[C@@H](CC[C@@H]1O2)C[C@@H](C)C8=C)O[C@@H]7[C@@H]6O3)[C@H]5O4; 1.29
CC[C@H](C)[C@@H]([C@@H](CC(=O)N1CCC[C@H]1[C@H](OC)[C@@H](C)C(=O)N[C@H](C)[C@@H](O)c1ccccc1)OC)N(C)C(=O)[C@@H](NC(=O)[C@H](C(C)C)N(C)C(=O)OCc1ccc(NC(=O)CNC(=O)[C@H](Cc2ccccc2)NC(=O)CNC(=O)CNC(=O)CCCCCN2C(=O)C=CC2=O)cc1)C(C)C [Comparative Example 1, reference compound] ({Hexanoyl(6-maleimido)}-GGFG[PABC][NMeV]V[Dil][Dolaproine]-X3); 38.31

// switching to the query compound
Q. Query: Polymer content (%); subject: `CCc1c2c(nc3ccc(O)cc13)-c1cc3c(c(=O)n1C2)CCC(=O)[C@@]3(CC)OC(=O)N(C)CCN(C)C(=O)COCNC(=O)CNC(=O)[C@H](Cc1ccccc1)NC(=O)CNC(=O)CNC(=O)CN1CCOCCN(C(=O)CCN2C(=O)C=CC2=O)CCOCC1`
A. 0.41

###

# TEST_DETAILS: Stability (placement) test of ADCs at 40° C. in dark for 14 days, DAR and polymer content
# Type: physicochemical
# APPLIED_CONDITIONS: Day 0, 40° C. in dark
*1 amine or outer side, *2 acyl side, *3 side chain or, on linkers, in order; H or OH if unused. Where a SMILES comes first, the peptide text is derived from it. [ ]: non-standard residue; d: D form. The star is where a group is joined. X2 = CO[C@@H]([C@H]1CCCN1[*:1])[C@@H](C)C(=O)[*:2]; Propanoyl(3-maleimido) = O=C1C=CC(=O)N1CCC(=O)*; Dil = CC[C@H](C)[C@H](NC)[C@@H](CC(=O)O)OC; X1 = O=C(CN1CCOCCN([*:1])CCOCC1)[*:2]; PABC = O=C(OCc1ccc(N[*:1])cc1)[*:2]; X3 = C[C@@H](N*)[C@@H](O)c1ccccc1; NMeV = CN[C@H](C(=O)O)C(C)C
PROPERTY_MEASURED: Polymer content (%)
Put your answer as a value accompanied by its unit after it.

Consider the reported Polymer content (%) for these compounds:
CC[C@H](C)[C@@H]([C@@H](CC(=O)N1CCC[C@@H]1[C@H](OC)[C@@H](C)C(=O)N[C@H](C)[C@@H](O)c1ccccc1)OC)N(C)C(=O)[C@@H](NC(=O)[C@H](C(C)C)N(C)C(=O)OCc1ccc(NC(=O)CNC(=O)[C@H](Cc2ccccc2)NC(=O)CNC(=O)CN2CCOCCN(C(=O)CCN3C(=O)C=CC3=O)CCOCC2)cc1)C(C)C [Example 86] ({Propanoyl(3-maleimido)}-[X1]GFG[PABC][NMeV]V[Dil][X2]-X3); 0.97%
C=C1C[C@@H]2CC[C@@]34C[C@H]5OC6C(O[C@H]7CC[C@H](CC(=O)C[C@@H]8[C@@H](OC)[C@@H](C[C@H](O)CNC(=O)CNC(=O)[C@H](Cc9ccccc9)NC(=O)CNC(=O)CN9CCOCCOCCN(C(=O)CCCC%10C(=O)C=CC%10=O)CCOCCOCC9)O[C@H]8C[C@H]8O[C@@H](CC[C@@H]1O2)C[C@@H](C)C8=C)O[C@@H]7[C@@H]6O3)[C@H]5O4; 1.25%

// switching to the query compound
Q. Query: Polymer content (%); subject: `C=C1C[C@@H]2CC[C@@]34C[C@H]5OC6C(O[C@H]7CC[C@H](CC(=O)C[C@@H]8[C@@H](OC)[C@@H](C[C@H](O)CNC(=O)CNC(=O)[C@H](Cc9ccccc9)NC(=O)CNC(=O)CNC(=O)CN9CCOCCN(C(=O)CCN%10C(=O)C=CC%10=O)CCOCC9)O[C@H]8C[C@H]8O[C@@H](CC[C@@H]1O2)C[C@@H](C)C8=C)O[C@@H]7[C@@H]6O3)[C@H]5O4`
A. 0.87%
